Source: patent EP4664463A1

system: OR5A2 (Homo sapiens)
Construct: expressed in transfected cells; host or cells: HEK293T cells with stably integrated human RTP1S (V227I) and RTP2 (L220R)
Sequence (Q8NGI9 with tags, fused parts or gaps): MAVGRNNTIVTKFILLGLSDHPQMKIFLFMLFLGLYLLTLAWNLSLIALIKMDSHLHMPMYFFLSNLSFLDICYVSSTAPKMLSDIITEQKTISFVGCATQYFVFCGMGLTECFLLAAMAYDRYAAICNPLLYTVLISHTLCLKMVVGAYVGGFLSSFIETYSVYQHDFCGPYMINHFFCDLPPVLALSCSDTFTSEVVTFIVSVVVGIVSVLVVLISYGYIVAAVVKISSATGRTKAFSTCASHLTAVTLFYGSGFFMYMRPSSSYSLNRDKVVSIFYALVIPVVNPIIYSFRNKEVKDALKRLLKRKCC
assay_notes: Luciferase dose-response, wild-type vs changed C-terminus (SEQ ID NO: 86)
Assay type: cell-based
experimental_parameters: Potency EC50, changed C-term SEQ ID NO: 86
pEC50: −log10 of the molar value.

compound	pEC50
CC1COCc2cc3c(cc21)C(C)(C)C(C)C3(C)C (stereo not shown) [Galaxolide]	7.00

====

system: OR2T11 (Homo sapiens)
Construct: expressed in transfected cells; host or cells: HEK293T stably expressing human RTP1S(V227I) and RTP2(L220R)
assay_notes: cell-based
Type: cell-based
experimental_parameters: Potency EC50, wild-type

molecule	EC50
C=CCSSCC=C [Diallyl disulfide]	> 200 µM
